B1: ZNF75A (parent)
chain: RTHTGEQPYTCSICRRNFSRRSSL

- Variants of: B1
- assayOverview: protein stability index of a GFP-peptide fusion (GPS, HEK-293T) (PSI 1-6); higher = more stable;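 also: lentivirally expressed fusions sorted by FACS into six bins by GFP to DsRed ratio, PSI derived from sequencing read proportions per bin multiplied by bin number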
- conditionsUsed: c terminus: a fixed tail appended
Short version: protein stability index at least 3 is YES, less is NO.

Q: Threshold query (protein stability index >= 3) on `Y9R`
Result: NO

Q: Check this variant for protein stability index at or above 3: `R15W`
Result: NO

Q: Reported protein stability index reaches at least 3 for `E6D` ?
Result: NO

Q: Is protein stability index at least 3? Consider `S23Q`
Result: NO

Q: Item `P8H` with protein stability index of 3 or above?
Result: YES

Q: Could you tell me if the measured protein stability index of `T10D` reaches 3 or more?
Result: YES

Q: For this variant, is measured protein stability index 3 or higher? `S19N`
Result: YES

Q: Could you verify whether the entry `H3S` shows protein stability index of no less than 3?
Result: YES
